target: Integrin alpha-L (Homo sapiens)
metric.name: IC50

> print(dat)
                           structure.smiles  result.value
1  COc1ccccc1Sc1ccc(/C=C/C(=O)N2CCC(C(=O)O)CC2)c(C(F)(F)F)c1C(F)(F)F          5 nM

* * *

biological target: Integrin alpha-L (Homo sapiens, UniProt P20701); test: Inhibition of intercellular adhesion molecule-1 (ICAM-1) binding to recombinant LFA-1, range(140-150)
Sequence (P20701 whole entry): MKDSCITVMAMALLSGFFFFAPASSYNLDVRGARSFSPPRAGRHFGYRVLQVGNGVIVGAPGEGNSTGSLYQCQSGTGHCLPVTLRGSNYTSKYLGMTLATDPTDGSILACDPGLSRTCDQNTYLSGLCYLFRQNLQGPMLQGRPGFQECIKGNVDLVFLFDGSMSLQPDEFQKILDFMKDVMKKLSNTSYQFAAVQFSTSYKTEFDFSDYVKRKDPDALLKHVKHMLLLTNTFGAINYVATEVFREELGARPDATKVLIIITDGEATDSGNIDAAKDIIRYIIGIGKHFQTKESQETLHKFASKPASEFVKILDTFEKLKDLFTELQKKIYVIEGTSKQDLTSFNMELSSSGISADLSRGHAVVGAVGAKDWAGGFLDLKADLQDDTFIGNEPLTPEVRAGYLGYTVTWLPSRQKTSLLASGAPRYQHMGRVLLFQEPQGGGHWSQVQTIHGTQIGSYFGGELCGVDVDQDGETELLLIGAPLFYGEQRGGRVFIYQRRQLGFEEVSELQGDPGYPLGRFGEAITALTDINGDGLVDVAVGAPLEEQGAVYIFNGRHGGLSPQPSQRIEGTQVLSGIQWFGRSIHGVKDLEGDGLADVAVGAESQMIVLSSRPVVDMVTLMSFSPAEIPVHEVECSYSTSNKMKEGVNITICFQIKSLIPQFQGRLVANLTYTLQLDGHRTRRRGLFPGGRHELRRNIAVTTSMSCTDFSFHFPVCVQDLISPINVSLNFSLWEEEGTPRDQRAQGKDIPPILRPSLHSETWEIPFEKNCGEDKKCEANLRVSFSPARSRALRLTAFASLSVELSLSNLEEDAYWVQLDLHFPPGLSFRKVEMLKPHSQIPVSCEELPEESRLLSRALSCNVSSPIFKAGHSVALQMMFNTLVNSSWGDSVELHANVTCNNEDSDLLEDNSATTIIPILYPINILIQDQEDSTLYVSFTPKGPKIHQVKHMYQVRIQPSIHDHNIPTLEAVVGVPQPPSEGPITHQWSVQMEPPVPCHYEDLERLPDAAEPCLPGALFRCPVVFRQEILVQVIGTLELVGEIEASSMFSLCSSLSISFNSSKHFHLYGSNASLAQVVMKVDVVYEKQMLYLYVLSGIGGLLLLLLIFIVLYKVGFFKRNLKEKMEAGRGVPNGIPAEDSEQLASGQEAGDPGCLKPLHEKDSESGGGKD
pIC50: −log10 of the molar value.
metric.name: pIC50

> print(dat)
                           structure.smiles  result.value
1  O=C(O)C1CCN(C(=O)/C=C/c2ccc(Sc3ccc4c(c3)OCCO4)c(Cl)c2)CC1          6.84
